meta.source: patent US20240216557A1

# Measured Target: T1, Histidine-tagged DLL3 antigen (DLL3-His) (Homo sapiens, UniProt Q9NYJ7)
# T1 construct: corresponding to amino acids Ala27-Ala479 with a C-terminal 6×His tag; made in house; host or cells: HEK293T cells
# T1 sequence (Q9NYJ7 27-479): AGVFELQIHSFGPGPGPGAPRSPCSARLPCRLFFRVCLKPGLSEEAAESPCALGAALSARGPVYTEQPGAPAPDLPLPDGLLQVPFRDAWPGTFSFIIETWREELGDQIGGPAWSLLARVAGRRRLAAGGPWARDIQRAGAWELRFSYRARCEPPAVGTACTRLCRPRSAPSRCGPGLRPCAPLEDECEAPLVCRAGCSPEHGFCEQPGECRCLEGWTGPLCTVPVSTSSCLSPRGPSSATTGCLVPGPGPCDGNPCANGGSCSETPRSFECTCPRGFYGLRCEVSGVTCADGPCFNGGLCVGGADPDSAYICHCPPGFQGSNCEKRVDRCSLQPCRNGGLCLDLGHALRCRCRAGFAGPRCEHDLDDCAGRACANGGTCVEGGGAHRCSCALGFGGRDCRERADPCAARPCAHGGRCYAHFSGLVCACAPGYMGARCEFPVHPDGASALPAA
# Assay Overview: Pairwise epitope binning on Carterra array SPR
# Test Parameters: pairwise competition for binding to DLL3-His, antibodies immobilized on HC200M chip
Endpoint: Epitope Bin
Numbers only.

Value sought for every listed molecule: Epitope Bin.
1. B22: anti-DLL3 antibody, VH SEQ ID NO: 141, VL SEQ ID NO: 142 (antibody, V domains shown) VH: EVQLVESGGGLVQPGGSLRLSCAASGFTFNNFWMSWVRQAPGKGLEWVANIKQDGSEKYYVDSVKGRFTISRDNAKNSLYLQMNSLRAEDTAVYYCARESYFDLWGRGTLVTVSS VL: QAVVTQESALTTSPGETVTLTCRSSTGAVTTSNYANWVQEKPDHLFTGLIGGTNNRAPGVPARFSGSLIGDKAALTITGAQTEDEAIYFCALWYSNRWVFGGGTKLTVL
2. E9: anti-DLL3 antibody, VH SEQ ID NO: 42, VL SEQ ID NO: 43 (antibody, V domains shown) VH: QVQLVQSGAEVKKPGASVKVSCKASGYTFTSYYMHWVRQAPGQGLEWMGVINSSGGSTSYAQKFQGRVTMTRDTSTSTVYMDLSSLRSEDTAVYYCARGYCTNGVYYDEDFDYWGQGTLVTVSS VL: DIQMTQSPSSLSASVGDRVTITCRASQGISHYLAWFQQKPGKAPTSLIYAASSLQSGVPSKFSGSGSGTDFTLTISSLQPEDFATYYCQQYNSYPLTFGGGTKVEIK

Solution:
1. 2
2. 4
